The measurements presented in this section are drawn from ChEMBL document CHEMBL5113509.

# Species: Homo sapiens
# protocol-summary: Disruption of HSP90 alpha (unknown origin) and PPID (unknown origin) at 50 uM measured after 1 hr by AlphaLISA assay relative to control
Task for the reader: assign each of the following compounds its reported Activity.

Answered examples (2):
chem-smiles: CC(=O)NCCc1ccc(O[C@H]2CCC[C@@H](OCc3ccccc3)C2)cc1-c1cccc(F)c1
Activity: > 50%
//
chem-smiles: CC(=O)NCCc1ccc(O[C@@H]2CCC[C@@H](OCc3ccccc3)C2)cc1-c1cccc(F)c1
Activity: < 50%

Batch request: Activity for each of the following compounds.
1. CC(=O)NCCc1ccc(O[C@H]2CC[C@H](Oc3ccc(Cl)cc3Cl)CC2)cc1-c1cccc(F)c1
2. CC(=O)NCCc1ccc(O[C@@H]2CCC[C@@H](Oc3ccccc3)C2)cc1-c1cccc(F)c1
3. CC(=O)NCCc1ccc(O[C@@H]2CCC[C@@H](N(C)c3ccccc3)C2)cc1-c1cccc(F)c1
4. CC(=O)NCCc1ccc(O[C@H]2CCC[C@@H](CCc3ccccc3)C2)cc1-c1cccc(F)c1

(A)
["> 50%", "> 50%", "< 50%", "> 50%"]

###

Exercise: for every item that follows, state its recorded Activity.
# Species on record: Homo sapiens
# protocol-summary: Disruption of HSP90 alpha (unknown origin) and PPID (unknown origin) at 50 uM measured after 1 hr by AlphaLISA assay relative to control

chem-smiles: CC(=O)NCCc1ccc(O[C@H]2CC[C@H](Oc3ccc(Cl)cc3)CC2)cc1-c1cccc(F)c1
Activity: > 50%

chem-smiles: CC(=O)NCCc1ccc(O[C@@H]2CCC[C@@H](Nc3ccccc3)C2)cc1-c1cccc(F)c1
Activity: < 50%

chem-smiles: CC(=O)NCCc1ccc(O[C@H]2CC[C@H](Cc3ccccc3)CC2)cc1-c1cccc(F)c1
Activity: > 50%

Working through the 5 molecules below one at a time, give Activity for each.
1. CC(=O)NCCc1ccc(O[C@H]2CC[C@@H](Nc3ccccc3)CC2)cc1-c1cccc(F)c1
2. CC(=O)NCCc1ccc(O[C@@H]2CCC[C@H](Sc3ccccc3)C2)cc1-c1cccc(F)c1
3. CC(=O)NCCc1ccc(O[C@H]2CC[C@H](Oc3ccccc3Cl)CC2)cc1-c1cccc(F)c1
4. CC(=O)NCCc1ccc(O[C@H]2CC[C@@H](Oc3ccccc3Cl)CC2)cc1-c1cccc(F)c1
5. CC(=O)NCCc1ccc(O[C@H]2CC[C@H](S(=O)(=O)c3ccccc3)CC2)cc1-c1cccc(F)c1

(A)
["> 80%", "> 50%", "> 50%", "> 50%", "> 50%"]

# batch size: 7; output Activity per entry
1. CC(=O)NCCc1ccc(O[C@H]2CCC[C@@H](N(C)c3ccccc3)C2)cc1-c1cccc(F)c1
2. CC(=O)NCCc1ccc(O[C@H]2CC[C@H](Oc3cccc(Cl)c3)CC2)cc1-c1cccc(F)c1
3. CC(=O)NCCc1ccc(O[C@H]2CC[C@@H](Oc3ccccc3)CC2)cc1-c1cccc(F)c1
4. CC(=O)NCCc1ccc(O[C@H]2CC[C@H](N(C)c3ccccc3)CC2)cc1-c1cccc(F)c1
5. CC(=O)NCCc1ccc(O[C@H]2CC[C@@H](S(=O)(=O)c3ccccc3)CC2)cc1-c1cccc(F)c1
6. CC(=O)NCCc1ccc(O[C@H]2CC[C@H](C(F)(F)Cc3ccccc3)CC2)cc1-c1cccc(F)c1
7. CC(=O)NCCc1ccc(O[C@H]2CC[C@H](Oc3ccccc3)CC2)cc1-c1cccc(F)c1

(A)
1. < 50%
2. > 50%
3. > 50%
4. < 50%
5. > 50%
6. > 50%
7. > 50%

Report Activity for every entry below.
1. CC(=O)NCCc1ccc(O[C@H]2CC[C@H](Sc3ccccc3)CC2)cc1-c1cccc(F)c1
2. CC(=O)NCCc1ccc(O[C@@H]2CCC[C@@H](SCc3ccccc3)C2)cc1-c1cccc(F)c1
3. CC(=O)NCCc1ccc(O[C@H]2CCC[C@@H](Nc3ccccc3)C2)cc1-c1cccc(F)c1
4. CC(=O)NCCc1ccc(O[C@H]2CC[C@H](Nc3ccccc3)CC2)cc1-c1cccc(F)c1
5. CC(=O)NCCc1ccc(O[C@H]2CCC[C@@H](Cc3ccccc3)C2)cc1-c1cccc(F)c1
6. CC(=O)NCCc1ccc(O[C@H]2CC[C@@H](N(C)c3ccccc3)CC2)cc1-c1cccc(F)c1
7. CC(=O)NCCc1ccc(O[C@@H]2CCC[C@@H](CCc3ccccc3)C2)cc1-c1cccc(F)c1
8. CC(=O)NCCc1ccc(O[C@H]2CCC[C@@H](Sc3ccccc3)C2)cc1-c1cccc(F)c1

(A)
["> 50%", "> 50%", "> 80%", "< 50%", "> 50%", "< 50%", "> 50%", "> 50%"]

###

For each of the compounds below, state its Activity.
# Species on record: Homo sapiens
# protocol-summary: Disruption of HSP90 alpha (unknown origin) and PPID (unknown origin) at 50 uM measured after 1 hr by AlphaLISA assay relative to control

Example entries begin here.
chem-smiles: CC(=O)NCCc1ccc(O[C@@H]2CCC[C@@H](Cc3ccccc3)C2)cc1-c1cccc(F)c1
Activity: > 50%
--
chem-smiles: CC(=O)NCCc1ccc(O[C@H]2CCC[C@@H](Oc3ccccc3)C2)cc1-c1cccc(F)c1
Activity: > 50%
--
chem-smiles: CC(=O)NCCc1ccc(O[C@H]2CC[C@H](SCc3ccccc3)CC2)cc1-c1cccc(F)c1
Activity: < 50%

List the reported Activity of each compound below.
1. CC(=O)NCCc1ccc(O[C@H]2CC[C@@H](C(F)(F)Cc3ccccc3)CC2)cc1-c1cccc(F)c1
2. CC(=O)NCCc1ccc(O[C@H]2CC[C@@H](Oc3ccc(Cl)cc3)CC2)cc1-c1cccc(F)c1
3. CC(=O)NCCc1ccc(O[C@H]2CC[C@@H](Sc3ccccc3)CC2)cc1-c1cccc(F)c1
4. CC(=O)NCCc1ccc(O[C@H]2CC[C@@H](Oc3cccc(Cl)c3)CC2)cc1-c1cccc(F)c1
5. CC(=O)NCCc1ccc(O[C@H]2CC[C@H](S(=O)(=O)Cc3ccccc3)CC2)cc1-c1cccc(F)c1
6. CC(=O)NCCc1ccc(O[C@H]2CC[C@@H](Cc3ccccc3)CC2)cc1-c1cccc(F)c1
7. CC(=O)NCCc1ccc(O[C@H]2CC[C@@H](Oc3ccc(Cl)cc3Cl)CC2)cc1-c1cccc(F)c1
8. CC(=O)NCCc1ccc(O[C@H]2CC[C@H](CCc3ccccc3)CC2)cc1-c1cccc(F)c1

(A)
["> 50%", "> 50%", "> 50%", "> 50%", "> 50%", "> 50%", "> 50%", "> 50%"]

(Q) Kindly indicate its recorded Activity. Item: CC(=O)NCCc1ccc(O[C@H]2CC[C@@H](S(=O)(=O)Cc3ccccc3)CC2)cc1-c1cccc(F)c1
(A) > 50%
